- Tested on: TRPC4 (transient receptor potential cation channel C4 beta), mouse
- Test Method Notes: potentiation of DAMGO EC20 TRPC4 response – cell-based, second round, Fluo-4, HEK293 TRPC4beta/mu-opioid, 1 µM, confirmation (AID 2554)
- Study Conditions: DAMGO EC20, Fluo-4 calcium flux, at 1 µM
Calls of active or inactive are those of the source.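 The calls were made as follows: active = primary screen hit whose fluorescence ratio, in both repeats, exceeds the weak agonist control mean by 3 SD; inactive = the rest.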
Your answer must be one of the following: class 1 (active), class 0 (inactive)

As a guide, the following entries are already answered.
>  <Compound>
N#CC1=C(N)C(C#N)(C#N)C(c2cccnc2)C2CC(c3ccccc3)CC=C12 (centres undefined)

>  <Class>
class 0

$$$$
>  <Compound>
C=CCOc1ccc(CN(C)Cc2nc3cc(C(F)(F)F)ccc3c(=O)[nH]2)cc1

>  <Class>
class 0

$$$$
>  <Compound>
CC(C)c1c(O)nc(SCCN(C)C)[nH]c1=O

>  <Class>
class 1

$$$$
>  <Compound>
O=C(CSc1nc2ccccc2c(=O)n1CCCO)N1CCc2ccccc21

>  <Class>
class 0

$$$$
>  <Compound>
Nc1nn2c(C(F)(F)F)cc(=O)[nH]c2c1N=Nc1cccc(F)c1

>  <Class>
class 0

$$$$

Problem: What did the test return for CCOC(=O)C1(CCOc2ccccc2)CCN(Cc2cccs2)CC1 ?
Solution: class 0

Problem: What did the test return for CCOc1ccccc1-n1c(SCC(=O)Nc2nccs2)nnc1-c1ccoc1C ?
Solution: class 0

Data credit: PubChem BioAssay
